- target desc: IDO1 (Homo sapiens, UniProt P14902)
- Sequence (P14902 whole entry): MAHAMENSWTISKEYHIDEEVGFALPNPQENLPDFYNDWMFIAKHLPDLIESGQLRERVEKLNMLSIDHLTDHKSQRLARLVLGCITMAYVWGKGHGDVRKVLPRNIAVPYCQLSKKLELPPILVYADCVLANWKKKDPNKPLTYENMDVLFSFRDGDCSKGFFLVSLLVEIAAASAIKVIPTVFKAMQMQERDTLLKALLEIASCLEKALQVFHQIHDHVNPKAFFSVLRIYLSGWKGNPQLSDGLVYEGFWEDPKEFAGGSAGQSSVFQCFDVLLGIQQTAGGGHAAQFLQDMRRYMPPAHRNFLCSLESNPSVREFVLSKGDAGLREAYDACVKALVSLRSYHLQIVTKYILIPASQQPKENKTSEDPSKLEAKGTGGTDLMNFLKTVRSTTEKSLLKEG
- assay name: IDO1 Human Whole Blood Assay
- Type: cell-based
- Parameters: Human whole blood was drawn in sodium heparin coated tubes from healthy internal donors; from tissue; host or cells: human whole blood from healthy donors, stimulated with LPS and IFNγ
- protocol conditions: LPS and IFNγ stimulated
- Description: IDO1 Human Whole Blood Assay Compounds to be tested were serially diluted in ten 3-fold steps in DMSO starting from 10 mM. […] LPS and IFNγ was prepared in RPMI to a 10× of final conc. (1000 ng/mL), final concentration is 100 ng/mL. Human whole blood was drawn in sodium heparin coated tubes from healthy internal donors. 240 μL of blood was transferred to each of the wells of a v-bottom 96 well plate. 30 μL of compound was transferred from intermediate dilution plate, and incubated for 15 min. […]
pIC50: −log10 of the molar value.
readout type: pIC50

INSERT INTO results (molecule, readout_type, recorded_number) VALUES
  ('CC(NC(=O)c1ccc(F)cc1)c1ccc2c(n1)CCCN2C(=O)OC(C)(C)C(F)(F)F (stereo not shown)', 'pIC50', 7.33);

[1] Cc1nccc(N2CCCc3nc(C4(C(=O)Nc5ccc(F)cc5)CC4(F)F)ccc32)n1 (single isomer, unassigned) [Example 421]
[2] O=C([C@H]1CCCCO1)N1CCCc2cc(C3(C(=O)Nc4ccc(F)cc4)CCC3)ccc21 (single isomer, unassigned)
[3] CC(C(=O)Nc1ccc(F)cc1)c1ccc2c(c1)CCCN2Cc1cccc(Cl)c1 (single isomer, unassigned) [Example 225]
Could you please sort these 3 entries by pIC50 from high to low? Hello, could you send the labels back in the order asked? Thank you.
2, 1, 3

The values you see were collected from patent US12275729B2.
